- Test system: SARS-CoV-2
- PROTOCOL: Antiviral activity against SARS CoV-2 USA-WA1/2020 clinical isolate infected in human Calu-3 cells assessed as reduction in viral infection incubated for 48 hrs by imaging analysis
- Type: functional, organism-based
- CONDITION PARAMETERS: Severe acute respiratory syndrome coronavirus 2, USA-WA1/2020, Calu-3, 48 h
MEASUREMENT TYPE: pEC50
Keep it numeric: pEC50 is minus log10 of the concentration in mol/L.

C[C@H](NC(=O)[C@@H](c1cccnc1)N(C(=O)C#CCC#N)c1ccc(-c2ccccc2)cc1)c1ccccc1 ... 5.53

Query string: # query: pEC50 of entry CCC(CC)COC(=O)[C@H](C)N[P@](=O)(OC[C@H]1O[C@@](C#N)(c2ccc3c(N)ncnn23)[C@H](O)[C@@H]1O)Oc1ccccc1
Result string: 6.77

====

- MEASURED ON: Replicase polyprotein 1ab (Severe acute respiratory syndrome coronavirus 2, UniProt P0DTD1)
- PROTOCOL: Inhibition of SARS-CoV-2 MPro
pIC50: −log10 of the molar value.
MEASUREMENT TYPE: pIC50

Query string: Query (molecule): C=CC(=O)N(c1ccc(-c2ccccc2)cc1)C(C(=O)N[C@@H](C)c1ccccc1)c1cccnc1 (stereo partly specified) ; field requested: pIC50
Result string: < 4.70

====

- MEASURED ON: Replicase polyprotein 1ab (Severe acute respiratory syndrome coronavirus 2, UniProt P0DTD1)
- PROTOCOL: Inhibition of MPro of SARS CoV-2 BetaCoV/Wuhan/WIV04/2019 preincubated for 30 mins followed by substrate addition measured for 1 hr by FRET assay
MEASUREMENT TYPE: IC50 (µM)
Give the quantity in µM, number only.

Worked examples, 2 compounds total:
CC(=O)/C=C/C(=O)N(c1ccc(-c2ccccc2)cc1)C(C(=O)N[C@@H](C)c1ccccc1)c1cccnc1 (some centres undefined) ... 17
C[C@H](NC(=O)C(c1cccnc1)N(C(=O)/C=C/c1ccco1)c1ccc(-c2ccccc2)cc1)c1ccccc1 (some centres undefined) ... 15.4

Switching to the query record.
Query string: Fill in: IC50 of C=CS(=O)(=O)N(c1ccc(-c2ccccc2)cc1)[C@H](C(=O)N[C@@H](C)c1ccccc1)c1cccnc1 is ___
Result string: 6.49

====

- MEASURED ON: Replicase polyprotein 1ab (Severe acute respiratory syndrome coronavirus 2)
MEASUREMENT TYPE: pKi
Scale: pKi equals -log10([C]), with [C] in mol/L.

Query string: // pKi lookup, key: C[C@H](NC(=O)[C@@H](c1cccnc1)N(C(=O)C#CCC#N)c1ccc(-c2ccccc2)cc1)c1ccccc1
Result string: 6.46

====

// pIC50 lookup, one value per entry
- MEASURED ON: Replicase polyprotein 1ab (Severe acute respiratory syndrome coronavirus 2)
- PROTOCOL: Inhibition of MPro of SARS CoV-2 BetaCoV/Wuhan/WIV04/2019 preincubated for 30 mins followed by substrate addition measured for 1 hr by FRET assay
pIC50: −log10 of the molar value.

The examples below pair each entry with its known result.
C[C@H](NC(=O)C(c1cccnc1)N(C(=O)C#CC(C)(C)O)c1ccc(-c2ccccc2)cc1)c1ccccc1 (stereo partly specified) ... 5.89
CCC(=O)C(=O)N(c1ccc(-c2ccccc2)cc1)C(C(=O)N[C@@H](C)c1ccccc1)c1cccnc1 (stereo partly specified) ... 5.42
C[C@H](NC(=O)C(c1cccnc1)N(C(=O)C1(C#N)CC1)c1ccc(-c2ccccc2)cc1)c1ccccc1 (stereo partly specified) ... < 4.70
C[C@H](NC(=O)[C@@H](c1cccnc1)N(C(=O)C#CCC#N)c1ccc(-c2ccccc2)cc1)c1ccccc1 ... 6.30
C=C(F)C(=O)N(c1ccc(-c2ccccc2)cc1)C(C(=O)N[C@@H](C)c1ccccc1)c1cccnc1 (stereo partly specified) ... < 4.70

Continue with the next molecule.
Query string: # lookup: pIC50 of C#CCN(c1ccc(-c2ccccc2)cc1)C(C(=O)N[C@@H](C)c1ccccc1)c1cccnc1 (stereo partly specified)
Result string: < 4.70
